test system: KM12 colon; test: NCI tumour cell line growth inhibition, 48 h
I'd be grateful if you could share measured TGI for these entries.

In: Consider the molecule O=S(Nc1ccccc1)c1ccccc1Oc1ccccc1 (stereo not drawn) and give its recorded TGI.
Out: > 100 µM

In: Consider the molecule COc1cc(/C=C/C(=O)c2ccc(F)cc2)ccc1OCCCCOc1cc2c(cc1OC)C(=O)N1CCCC1C=N2 (stereo not drawn) and give its recorded TGI.
Out: 7.71 µM

In: Consider the molecule Cc1cccc(C)c1NC(=O)C(=O)C(c1ccccc1Cl)S(=O)(=O)Cc1ccccc1Cl (stereo not drawn) and give its recorded TGI.
Out: > 100 µM

In: Consider the molecule NNC(=O)C(O)C(O)C(O)CO (stereo not drawn) and give its recorded TGI.
Out: > 100 µM

In: Consider the molecule OCCNC(=S)Nc1ccc(-c2nc(N3C[C@H]4CC[C@@H](C3)O4)c3cccn3n2)cc1 and give its recorded TGI.
Out: 12.6 µM

In: Consider the molecule CCCCCCCC(=O)SCC/C=C/[C@@H]1CC(=O)NCc2cccc(n2)C2=N[C@@](C)(CS2)C(=O)N[C@@H](C(C)C)C(=O)O1 and give its recorded TGI.
Out: 5.95 µM

In: Consider the molecule NC(N)=NS(=O)(=O)c1ccc(NC(=O)c2cccn3c(=O)c4ccccc4nc23)cc1 and give its recorded TGI.
Out: 36 µM

In: Consider the molecule C=CCNC(=O)ON1C(=O)CCC1=O and give its recorded TGI.
Out: > 100 µM

In: Consider the molecule CC1(C)CCc2cc3c(cc2O1)OC(C)(C)CC3=O and give its recorded TGI.
Out: > 100 µM

In: Consider the molecule O=C(O)c1[nH]c(=O)[nH]c(=O)c1CN1CCCCC1 and give its recorded TGI.
Out: > 100 µM

In: Consider the molecule COC(=O)c1ccc(CS(=O)(=O)c2ccccc2)cc1 and give its recorded TGI.
Out: > 100 µM

In: Consider the molecule C[C@]12CC[C@H](OC(=O)Cc3ccc(N(CCCl)CCCl)cc3)CC1CC[C@@H]1C2CC[C@]2(C)NC(=O)CCC12 (stereo partly drawn) and give its recorded TGI.
Out: 25.5 µM

In: Consider the molecule Cc1nnc(N2C(=O)C(=Cc3ccc(Cl)cc3)N=C2c2ccc(Cl)cc2)nc1/C=C\c1ccc(N(C)C)cc1 and give its recorded TGI.
Out: > 100 µM

In: Consider the molecule CC(=O)OC(=C(C#N)C#N)c1nccnc1C(=O)O and give its recorded TGI.
Out: > 100 µM

In: Consider the molecule NNC(=O)CC(=O)Nc1ccccc1Cl and give its recorded TGI.
Out: > 100 µM

In: Consider the molecule COc1c(N2CCCCC2)c2c(=O)c3ccccc3oc2c2cc(C)oc12 and give its recorded TGI.
Out: 62.4 µM

In: Consider the molecule CC(=O)N(CN1C(=O)CCC1C(=O)O)c1ccc(C)cc1 (stereo not drawn) and give its recorded TGI.
Out: > 100 µM

In: Consider the molecule N#CC1=C(c2ccccc2)NN(Cc2ccccc2)C(c2ccc(Cl)cc2)CC1=O (stereo not drawn) and give its recorded TGI.
Out: 82.1 µM

In: Consider the molecule C[C@]12CC/C(=N\O)C[C@@H]1CC[C@@H]1[C@@H]2CC[C@]2(C)/C(=N/O)CC[C@@H]12 and give its recorded TGI.
Out: 47.4 µM

In: Consider the molecule CC(/C=C/c1ccccc1)=N\N=C(C)\C=C\c1ccccc1 and give its recorded TGI.
Out: > 100 µM

In: Consider the molecule CCCCCCCCCCCCCCCCSS(C)(=O)=O and give its recorded TGI.
Out: > 100 µM

In: Consider the molecule N=C1/C(=C/c2ccco2)C(=O)N=C2SC=NN12 and give its recorded TGI.
Out: > 100 µM

In: Consider the molecule Cc1c(C)n(CC(O)CNC2CCCCC2C)c2ccccc12 (stereo not drawn) and give its recorded TGI.
Out: 28.9 µM
